Reference for the values: ChEMBL document CHEMBL5620408

system: Human immunodeficiency virus 1; test: microbe, parasite or virus in culture; settings: Human immunodeficiency virus 1, IIIB, MT4
Description: Antiviral activity against HIV1 IIIB infected in MT-4 cells assessed as viral induced cytopathic effect by MTT assay
Returns: string. Value is yes (1) if measured EC50 is below 6 nM, and no (0) if it is greater than or equal to it.

- cpd smiles: "Cc1cc(/C=C/C#N)cc(C)c1Oc1ccnc(Nc2ccc(N3CCS(=O)(=O)CC3)c(F)c2)n1"
  qualitative label: "yes (1)"
- cpd smiles: "Cc1cc(/C=C/C#N)cc(C)c1Oc1ccnc(Nc2ccc(C3CCN(S(=O)(=O)N(C)C)CC3)cc2)n1"
  qualitative label: "no (0)"
- cpd smiles: "CCS(=O)(=O)N1CCN(c2ccc(Nc3nccc(Oc4c(C)cc(/C=C/C#N)cc4C)n3)cc2)CC1"
  qualitative label: "yes (1)"
- cpd smiles: "Cc1cc(/C=C/C#N)cc(C)c1Oc1ccnc(Nc2ccc(N3CCN(S(=O)(=O)C(C)C)CC3)cc2)n1"
  qualitative label: "no (0)"
- cpd smiles: "CCS(=O)(=O)N1CCN(c2ccc(Nc3nccc(Oc4c(C)cc(/C=C/C#N)cc4C)n3)cc2F)CC1"
  qualitative label: "yes (1)"
- cpd smiles: "Cc1cc(/C=C/C#N)cc(C)c1Oc1ccnc(Nc2ccc(C3CCN(S(C)(=O)=O)CC3)cc2)n1"
  qualitative label: "yes (1)"

====

Each entry below lists one item and its recorded IC50 value.
target: Human immunodeficiency virus type 1 reverse transcriptase (Human immunodeficiency virus 1, UniProt Q72547)

- cpd smiles: "Cc1cc(/C=C/C#N)cc(C)c1Oc1ccnc(Nc2ccc(N3CCOCC3)c(F)c2)n1"
  IC50, nM: 46
- cpd smiles: "Cc1cc(C#N)cc(C)c1Oc1ccnc(Nc2ccc(N3CCN(S(C)(=O)=O)CC3)c(F)c2)n1"
  IC50, nM: 43
- cpd smiles: "Cc1cc(/C=C/C#N)cc(C)c1Oc1ccnc(Nc2ccc(C3CCN(S(=O)(=O)N(C)C)CC3)cc2)n1"
  IC50, nM: 100
- cpd smiles: "Cc1cc(/C=C/C#N)cc(C)c1Oc1ccnc(Nc2ccc(C3CCN(S(=O)(=O)C(C)C)CC3)cc2)n1"
  IC50, nM: 130

====

assay: AUCinfinity in Sprague-Dawley rat at 2 mg/kg, iv; format: ADME, organism-based; settings: in vivo

- cpd smiles: "Cc1cc(/C=C/C#N)cc(C)c1Oc1ccnc(Nc2ccc(N3CCS(=O)(=O)CC3)c(F)c2)n1"
  AUC(0-inf), ng·h/mL: 316

====

tested on: MT4; test: Cytotoxicity against human MT4 cells; format: toxicity, cell-based

- cpd smiles: "Cc1cc(/C=C/C#N)cc(C)c1Oc1ccnc(Nc2ccc(C3CCN(S(=O)(=O)C(C)C)CC3)cc2)n1"
  system name: "MT4"
  Activity: "Non-Toxic"
- cpd smiles: "CCS(=O)(=O)N1CCN(c2ccc(Nc3nccc(Oc4c(C)cc(C#N)cc4C)n3)cc2F)CC1"
  system name: "MT4"
  Activity: "Non-Toxic"
- cpd smiles: "Cc1cc(C#N)cc(C)c1Oc1ccnc(Nc2ccc(C3CCN(S(=O)(=O)C4CC4)CC3)cc2)n1"
  system name: "MT4"
  Activity: "Non-Toxic"
- cpd smiles: "Cc1cc(C#N)cc(C)c1Oc1ccnc(Nc2ccc(N3CCN(S(=O)(=O)C4CC4)CC3)cc2)n1"
  system name: "MT4"
  Activity: "Non-Toxic"
- cpd smiles: "CCS(=O)(=O)N1CCC(c2ccc(Nc3nccc(Oc4c(C)cc(/C=C/C#N)cc4C)n3)cc2)CC1"
  system name: "MT4"
  Activity: "Non-Toxic"
- cpd smiles: "Cc1cc(C#N)cc(C)c1Oc1ccnc(Nc2ccc(N3CCN(S(C)(=O)=O)CC3)c(F)c2)n1"
  system name: "MT4"
  Activity: "Non-Toxic"
- cpd smiles: "Cc1cc(C#N)cc(C)c1Oc1ccnc(Nc2ccc(N3CCN(S(C)(=O)=O)CC3)cc2)n1"
  system name: "MT4"
  Activity: "Non-Toxic"
- cpd smiles: "Cc1cc(/C=C/C#N)cc(C)c1Oc1ccnc(Nc2ccc(N3CCN(S(=O)(=O)C4CC4)CC3)c(F)c2)n1"
  system name: "MT4"
  Activity: "Non-Toxic"
- cpd smiles: "Cc1cc(C#N)cc(C)c1Oc1ccnc(Nc2ccc(N3CCN(S(=O)(=O)C4CC4)CC3)c(F)c2)n1"
  system name: "MT4"
  Activity: "Non-Toxic"
- cpd smiles: "Cc1cc(/C=C/C#N)cc(C)c1Oc1ccnc(Nc2ccc(CN3CCN(S(C)(=O)=O)CC3)cc2)n1"
  system name: "MT4"
  Activity: "Non-Toxic"
- cpd smiles: "Cc1cc(/C=C/C#N)cc(C)c1Oc1ccnc(Nc2ccc(N3CCN(S(=O)(=O)C(C)C)CC3)c(F)c2)n1"
  system name: "MT4"
  Activity: "Non-Toxic"
- cpd smiles: "Cc1cc(/C=C/C#N)cc(C)c1Oc1ccnc(Nc2ccc(N3CCN(S(C)(=O)=O)CC3)cc2)n1"
  system name: "MT4"
  Activity: "Non-Toxic"
- cpd smiles: "CCS(=O)(=O)N1CCC(c2ccc(Nc3nccc(Oc4c(C)cc(C#N)cc4C)n3)cc2)CC1"
  system name: "MT4"
  Activity: "Non-Toxic"
- cpd smiles: "Cc1cc(/C=C/C#N)cc(C)c1Oc1ccnc(Nc2ccc(C3CCN(S(=O)(=O)C4CC4)CC3)cc2)n1"
  system name: "MT4"
  Activity: "Non-Toxic"
- cpd smiles: "Cc1cc(C#N)cc(C)c1Oc1ccnc(Nc2ccc(N3CCN(S(=O)(=O)N(C)C)CC3)cc2)n1"
  system name: "MT4"
  Activity: "Non-Toxic"
- cpd smiles: "Cc1cc(C#N)cc(C)c1Oc1ccnc(Nc2ccc(N3CCN(S(=O)(=O)C(C)C)CC3)c(F)c2)n1"
  system name: "MT4"
  Activity: "Non-Toxic"
